The reported numbers originate from patent US20240360227A1.

- test_target: Recombinant human his-tagged IGF R extracellular domain protein (human) (UniProt P08069)
- experiment: SPR, Ab captured via anti-huIgG Fc, pH 7.4
measured_property: pKd
Lab note: report pKd as minus log10 of the concentration in molar units, number only.

# binder, measured_property, value_reported
data = [
    ("VRDN-02040 (antibody, V domains shown) VH: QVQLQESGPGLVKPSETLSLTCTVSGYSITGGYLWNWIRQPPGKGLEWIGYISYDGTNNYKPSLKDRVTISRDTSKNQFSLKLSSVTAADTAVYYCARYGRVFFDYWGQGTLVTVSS VL: DIVMTQSPLSLPVTPGEPASISCRSSQSIVHSNGNHYLQWYLQKPGQSPQLLIYKVSNRLYGVPDRFSGSGSGTDFTLKISRVEAEDVGVYYCFQGSHVPWTFGQGTKVEIK", "pKd", 8.91),
    ("VRDN-02067 (antibody, V domains shown) VH: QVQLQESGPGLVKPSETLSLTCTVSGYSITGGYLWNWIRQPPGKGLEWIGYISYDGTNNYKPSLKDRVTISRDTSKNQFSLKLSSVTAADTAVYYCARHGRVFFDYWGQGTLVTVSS VL: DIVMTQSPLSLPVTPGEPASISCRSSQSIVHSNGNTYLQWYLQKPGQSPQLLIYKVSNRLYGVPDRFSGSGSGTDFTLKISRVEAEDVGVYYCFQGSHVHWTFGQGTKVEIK", "pKd", 9.60),
    ("VRDN-02070 (antibody, V domains shown) VH: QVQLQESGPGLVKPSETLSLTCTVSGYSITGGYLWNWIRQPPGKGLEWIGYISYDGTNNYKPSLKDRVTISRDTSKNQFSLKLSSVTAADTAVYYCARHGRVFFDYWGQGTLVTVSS VL: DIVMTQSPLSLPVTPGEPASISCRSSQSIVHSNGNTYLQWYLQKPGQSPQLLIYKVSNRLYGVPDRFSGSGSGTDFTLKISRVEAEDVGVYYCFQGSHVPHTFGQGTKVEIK", "pKd", 9.49),
]

The binder listed as VRDN-02037 (antibody, V domains shown) VH: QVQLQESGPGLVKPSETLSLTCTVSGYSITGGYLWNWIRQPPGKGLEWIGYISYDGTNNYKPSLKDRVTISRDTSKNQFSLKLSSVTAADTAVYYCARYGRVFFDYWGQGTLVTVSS VL: DIVMTQSPLSLPVTPGEPASISCRSSQSIVHSHGNTYLQWYLQKPGQSPQLLIYKVSNRLYGVPDRFSGSGSGTDFTLKISRVEAEDVGVYYCFQGSHVPWTFGQGTKVEIK shows pKd equal to 9.07

The binder listed as VRDN-02029 (antibody, V domains shown) VH: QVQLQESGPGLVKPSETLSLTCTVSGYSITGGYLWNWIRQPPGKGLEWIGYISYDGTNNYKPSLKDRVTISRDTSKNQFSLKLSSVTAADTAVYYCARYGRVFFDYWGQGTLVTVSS VL: DIVMTQSPLSLPVTPGEPASISCHSSQSIVHSNGNTYLQWYLQKPGQSPQLLIYKVSNRLYGVPDRFSGSGSGTDFTLKISRVEAEDVGVYYCFQGSHVPWTFGQGTKVEIK shows pKd equal to 9.22
